Experimental Conditions: in isopropanol, 283.15 K
Measure: solubility (mole fraction)
One number for each entry.

Request: Identify solubility (mole fraction) associated with the compound "CC(C)C[C@H](N)C(=O)O"
Result: 0.000156

====

Experimental Conditions: in ethyl acetate, 313.15 K
Measure: solubility (mole fraction)
One number for each entry.

Request: Identify solubility (mole fraction) associated with the compound "CC(C)C[C@H](N)C(=O)O"
Result: 0.000341

====

Experimental Conditions: in ethyl acetate, 293.15 K
Measure: solubility (mole fraction)
Numbers only.

Request: Identify solubility (mole fraction) associated with the compound "CC(C)C[C@H](N)C(=O)O"
Result: 0.000197
